# measured_target: PCSK9 (Homo sapiens (Human), UniProt Q8NBP7)
# Sequence (Q8NBP7 153-692): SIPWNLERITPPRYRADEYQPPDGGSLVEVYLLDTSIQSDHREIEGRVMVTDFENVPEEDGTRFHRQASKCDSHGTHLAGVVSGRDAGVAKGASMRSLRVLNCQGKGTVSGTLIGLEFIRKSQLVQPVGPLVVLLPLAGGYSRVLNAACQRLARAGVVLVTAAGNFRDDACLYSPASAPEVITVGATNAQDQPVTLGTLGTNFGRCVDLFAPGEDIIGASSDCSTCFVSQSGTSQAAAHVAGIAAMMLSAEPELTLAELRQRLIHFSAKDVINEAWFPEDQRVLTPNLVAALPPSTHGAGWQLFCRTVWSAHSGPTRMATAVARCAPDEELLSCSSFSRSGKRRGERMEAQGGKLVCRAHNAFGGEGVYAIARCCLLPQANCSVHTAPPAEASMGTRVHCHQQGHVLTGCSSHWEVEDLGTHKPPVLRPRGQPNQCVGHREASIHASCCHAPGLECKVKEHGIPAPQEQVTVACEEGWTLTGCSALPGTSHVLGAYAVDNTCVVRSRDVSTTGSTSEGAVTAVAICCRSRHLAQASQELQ
# test_description: PCSK9 Alexa FRET Standard assay (displacement of AlexaFluor647 tagged cyclic peptide Reagent A)
# Format: binding
# condition_parameters: PCSK9 Alexa FRET Standard assay, 0.5 nM PCSK9, 20 nM AF cyclic peptide Reagent A; read-out: IC50
Starred links: 1 amine or outer side, 2 acyl side, 3 side chain; linkers in the order of their positions; H or OH if unused. Positions of bridges follow the written chain, without caps; N, C: chain ends. Non-standard residues stand in square brackets, D forms with d. Residues, ends and D or L forms follow the SMILES beside them. Trp(5-F) = N[C@@H](Cc1c[nH]c2ccc(F)cc12)C(=O)O; mXylylene = c1cc(C[*:1])cc(C[*:2])c1; AEF = NCCOc1ccc(C[C@H](N)C(=O)O)cc1; Val(3-OH) = CC(C)(O)[C@H](N)C(=O)O; αMeP = C[C@@]1(C(=O)O)CCCN1; Mpa = O=C(O)CCS
Each item that follows carries a reported IC50.

compound	measured_target	IC50
CC(C)(O)[C@@H]1NC(=O)[C@@H]2CCCN2C(=O)[C@H](Cc2c[nH]c3ccc(F)cc23)NC(=O)[C@H](Cc2c[nH]c3ccc(F)cc23)NC(=O)CNC(=O)[C@H](CCCCN)NC(=O)CCSCc2cccc(c2)CSC[C@@H](C(N)=O)NC(=O)[C@]2(C)CCCN2C(=O)[C@H](Cc2ccc(O)cc2)NC1=O [Compound 048] ([Mpa]KG[Trp(5-F)][Trp(5-F)]P[Val(3-OH)]Y[αMeP]C-NH2; linker 1-10 via mXylylene)	PCSK9 (Homo sapiens (Human), UniProt Q8NBP7)	100 to 1000 nM

In plain terms, CC(C)C[C@@H]1NC(=O)[C@@H]2CCCN2C(=O)[C@H](Cc2c[nH]c3ccc(F)cc23)NC(=O)[C@H](Cc2c[nH]c3ccc(F)cc23)NC(=O)CNC(=O)[C@H](CCCCN)NC(=O)CCSCc2cccc(c2)CSC[C@@H](C(N)=O)NC(=O)[C@]2(C)CCCN2C(=O)[C@H](Cc2ccc(O)cc2)NC1=O [Compound 004] ([Mpa]KG[Trp(5-F)][Trp(5-F)]PLY[αMeP]C-NH2; linker 1-10 via mXylylene) has a documented IC50 of 0.11 to 100 nM

In plain terms, CC(=O)N[C@H]1CC(=O)NCCOc2ccc(cc2)C[C@@H](C(N)=O)NC(=O)[C@]2(C)CCCN2C(=O)[C@H](Cc2ccc(O)cc2)NC(=O)[C@H](Cc2c[nH]cn2)NC(=O)[C@H](CC(=O)O)NC(=O)[C@H](Cc2c[nH]c3ccc(F)cc23)NC(=O)[C@H](Cc2c[nH]c3ccc(F)cc23)NC(=O)CNC(=O)[C@H](C)NC1=O [Compound 310] (Ac-DAG[Trp(5-F)][Trp(5-F)]DHY[αMeP][AEF]-NH2; lactam 1-10) has a documented IC50 of 1000 to 12100 nM
